Measured growth accompanies every entry in the list below.
- System: PC-3 prostate
- Test description: NCI-60 one-dose screen, 48 h (100 = growth as untreated, 0 = no growth, -100 = all killed)
- Test parameters: 10 µM unless noted
This is part of a sample that, as a whole, favours compounds with a hit. Of some 83,000 tested, about 20% had one in any assay.
Write the number in % without appending the unit.

Solved cases below.
O=C(Nc1ccc2c(c1)OCCO2)C(=O)c1c[nH]c2ccccc12; 28.9
CN1CCN(CCCOc2ccc3nc(Nc4ccc(Cl)c(C(F)(F)F)c4)ccc3c2)CC1; 40.6

Moving on to the next compound.
For this compound ( `COc1ccc(-c2cn(-c3cccc(C(=O)/C=C/c4cc(OC)c(OC)c(OC)c4)c3)c(=O)[nH]2)cc1OC` ), measured growth is 81.5

###

- Tested on: UACC-257 melanoma
- Test description: NCI-60 one-dose screen, 48 h (100 = growth as untreated, 0 = no growth, -100 = all killed)
- Test parameters: 10 µM unless noted
Compounds without any hit were thinned out: in the full panel of roughly 83,000, 20% have a hit.
growth strictly under 70% means YES; at 70% or over means NO.

Solved cases below.
Cc1ccc(S(=O)(=O)NCCNc2cc(-c3cn(C(C)(C)C)nc3-c3cccc(O)c3)ccn2)cc1; NO
Cc1ccc(S(=O)(=O)Nc2c(Br)cc(Br)cc2C(N)=O)cc1; NO
COc1ccc(/C=C2\Oc3cc(OCCCN4CCCC4)ccc3C2=O)c(OC)c1; NO

Input: # strict comparison: is reported growth < 70%? input = `O=c1ccn(-c2ncnc3nc[nH]c23)cc1`
Output: YES

Input: Just wondering, is growth of `N=C(N)c1ccc(-c2ccc(-c3ccc(-c4cccs4)s3)s2)cc1` below 70%?
Output: NO

Input: Take the compound NC(=S)N/N=C1\CCCC(C(F)(F)F)C1 (stereo not given) and say whether its growth is less than 70%.
Output: NO

###

- Tested on: M14 melanoma
- Test description: NCI-60 one-dose screen, 48 h (100 = growth as untreated, 0 = no growth, -100 = all killed)
- Test parameters: 10 µM unless noted
Compounds without any hit were thinned out: in the full panel of roughly 83,000, 20% have a hit.
Parameter: growth (%)
Could you give me the number in %? Just the number is fine.

Some solved cases for reference:
COc1ccc(Nc2ncccc2C(=O)NCc2cn(Cc3cccc(Oc4ccccc4)c3)nn2)c(OC)c1; 14.2
Cc1cc(C)n(-c2nnc3n2N=C(c2ccc(-c4ccccc4)cc2)CS3)n1; 30
O=C(Nc1ccncc1)C(=O)c1cn(S(=O)(=O)c2ccc(Cl)cc2)c2ccccc12; 17.7
COc1cc(/C=C/c2cc(/C=C/c3ccc(O)c(OC)c3)n(C(N)=O)n2)ccc1O; -66.2
O=C1Nc2ccc3c(c2/C1=C\c1cc2c(cc1Br)OCO2)OCO3; -6.52

Entry `CN(C)CCCN(c1nc(C(Cl)(Cl)Cl)ns1)c1nc(C(Cl)(Cl)Cl)ns1` , tested on M14 melanoma, has a reported growth of -19

For the molecule `COc1ccc2cc(-c3ccc(-c4ccc(C(=N)N)cc4)s3)ccc2c1` , the measured growth on M14 melanoma was 97.6

Assay M14 melanoma, sample `Cc1ccc(S(=O)(=O)NC(=O)n2cc(-c3ccncc3)c(-c3ccc(Cl)c(O)c3)n2)cc1` , growth read: 51.2

Response field growth (M14 melanoma) for item `c1cc2[nH]ncc2cc1-c1nc2ccc3[nH]ncc3c2c2c1CCC2` : 21

growth for M14 melanoma with input `COc1cc([N+](=O)[O-])c2ncccc2c1O` equals -23.9

Entry `COc1ccc2[nH]c(=O)c3c4ccccc4cn3c2c1` ; assay system M14 melanoma; growth recorded at 23.9

Measured growth for this entry CN(C)c1oc(C2OC2c2ccccc2)nc1C#N (stereo unspecified) on M14 melanoma: 104

###

growth: recorded values
- System: SNB-75 CNS
- Test description: NCI-60 one-dose screen, 48 h (100 = growth as untreated, 0 = no growth, -100 = all killed)
- Test parameters: 10 µM
Compounds without any hit were thinned out: in the full panel of roughly 83,000, 20% have a hit. Calls of active or inactive are those of the source. How the source made its calls: active means growth percent below 10; inactive means the rest.

CCc1cnc(=S)n(-c2ccccc2)c1; 117% (inactive)
O=c1[nH]c(-c2ccccc2)nc(CN2CCCCC2)c1O; 96.3% (inactive)
COc1ccc2c(c1)[nH]c(=O)c1c3cccc(F)c3cn21; 76.2% (inactive)
Cn1c(=O)c2[nH]c(C3CC=CCC3)nc2n(C)c1=O (stereo unspecified); 93.9% (inactive)
Cn1c2ccc(Br)cc2c2c3c(c4c5ccccc5[nH]c4c21)C(=O)N(O)C3=O; -86.9% (active)

// switching to the query compound
Entry C=C1CCC2C3(C)COC(c4ccc(N(C)C)cc4)OC3CCC2(C)C1C/C=C1/C(=O)OCC1O (stereo unspecified) — recorded growth = 73.8% (inactive)

###

This section presents molecules with their documented growth values.
- Test system: HCT-116 colon
- Test description: NCI-60 one-dose screen, 48 h (100 = growth as untreated, 0 = no growth, -100 = all killed)
- Test parameters: 10 µM unless noted
About 83,000 compounds went through this panel and 20% of them were active in at least one assay; those are over-represented in the sample as a whole.
Unit % implied. Number only.

Worked examples follow.
COc1cccc(-c2nc3sccn3c2-c2ccnc(NCCCNS(=O)(=O)c3ccc(C(F)(F)F)cc3)c2)c1; 41.9
CC(C)(C)n1cc(-c2ccnc(NCCCNS(=O)(=O)c3ccc(Br)cc3)c2)c(-c2cccc(O)c2)n1; 22.6
COc1ccc(-c2c(N)n[nH]c2-c2cc(OC)c(OC)c(OC)c2)cc1; 9.76
CC12CCC3C4(C)COC(c5ccco5)OC4CCC3(C)C1CC(C1=CCOC1=O)O2 (stereo not given); 104
O=C(CSc1nc2ccccc2[nH]1)Nc1ccc(-c2nc3ccccc3s2)c(Cl)c1; -90.2
COc1ccc2c(c1)C(c1cc(OC)c3c(c1)OCO3)C1=C(COC1=O)N2 (stereo not given); 12.7
O=C(CSC1CCc2ccccc21)N/N=C/c1ccccc1O (stereo not given); 31.5
COc1ccc(C(=O)N2NC(=O)/C(=C/c3cn(-c4ccccc4)nc3-c3ccccc3)N=C2c2ccccc2)cc1; 95.2
CNC(=S)NNC(=O)C1CC1; 101
CCOC(=O)c1cn2c3c(cccc3c1=O)C(=O)/C(=C/c1cccc(Cl)c1Cl)C2; 105

growth value, target or system HCT-116 colon, for `Nc1cc2c([nH]c[n+]2CC#CCCl)c(SCC#CCCl)n1` : -98.6

growth for HCT-116 colon with input `Cc1ccc(S(=O)(=O)NCCNc2nccc(-c3c(-c4ccc(O)cc4)nc4sccn34)n2)cc1` equals 100

Value sought: growth, system HCT-116 colon, item O=c1[nH]c2ccc(Br)cc2c2c1C(c1ccc(Cl)cc1)c1c(ncn3nc(-c4ccco4)nc13)O2 (stereo not given) . Result: 67.5

Assay HCT-116 colon, sample Cc1csc(NC(c2ccc(Br)cc2)c2c(C)nc3ccccn23)n1 (stereo not given) , growth read: 59.8

The measured growth that `COc1ccc2c(c1)[nH]c(=O)c1c3cc(C)c(C)cc3cn21` showed for HCT-116 colon is -35.9

Record for `C=C1CCC[C@]2(C)CCC[C@H](C)[C@@H](OC(C)=O)[C@@H]3OC(=O)C(=C)[C@@H]3C[C@H]1O2` under target or system HCT-116 colon: growth reported as 55.1

Here `COc1ccc(/C=C2\N=C(c3ccccc3)N(C(=O)c3ccccc3O)NC2=O)cc1` was tested on HCT-116 colon, and its growth came to 92

Here `O=[N+]([O-])c1cccc(-c2nc3sccn3c2-c2ccnc(NCCCNS(=O)(=O)c3ccc(Cl)cc3)n2)c1` was tested on HCT-116 colon, and its growth came to 53.3

Let me check: `CCCCCCCCCCCC(=O)NCCC[N+](C)(C)CC(=O)[O-]` , system HCT-116 colon, measured growth is 89.9

The value of growth recorded for `COc1ccc2c(c1)[nH]c(=O)c1c3cccc(F)c3cn21` when tested on HCT-116 colon reads 24.6

###

- Test system: MALME-3M melanoma
- Test description: NCI-60 one-dose screen, 48 h (100 = growth as untreated, 0 = no growth, -100 = all killed)
- Test parameters: 10 µM unless noted
The panel holds about 83,000 compounds, 20% with a hit somewhere; the sample as a whole holds those more often.
Recorded growth values for a group of compounds are listed next.
Number only, in %; omit the unit.

Known growth results, listed for orientation:
COc1ccc(Nc2[nH]n3c(=O)cc(C)nc3c2C(N)=O)c(OC)c1; 126
COC(=O)C(Sc1ccc(Cl)cc1)C1SC(=S)N(Cc2ccccc2)C1=O (stereo not given); 98.9
O=C(N/N=C/C=C\c1ccccc1)C(=O)N/N=C/C=C/c1ccccc1; 117
C=C1C(=O)O[C@H]2[C@H]1CC/C(Cn1cc(CNC(=O)c3cc4ccccc4[nH]3)nn1)=C\CC[C@@]1(C)O[C@@H]21; 0.0965

growth measured on COc1ccc(C2=CC(c3cc(OC)c(OC)c(OC)c3)NC(=O)N2)cc1OC (stereo not given) = 11.2
